These entries and their values trace back to ChEMBL document CHEMBL1201862.

Test system: SN12C
assay.name: NCI tumour cell line growth inhibition, 48 h
Activity calls are given as the source filed them. Rule as the data show it: active = GI50 up to about 1.1 µM and inactive = higher.
measurement.label: GI50

Prompt: Determine its reported GI50: `CCc1nc2c(n1CC)C(=O)c1ccccc1C2=O`
Response: 27.8 µM (inactive)

Prompt: Determine its reported GI50: `COc1ccc2c(c1)[n+]([O-])c(C(C)=O)c(C)[n+]2[O-]`
Response: > 100 µM (inactive)

Prompt: Determine its reported GI50: `CC1=C2c3ccccc3N(C(=O)/C=C/C(=O)O)[C@H]2[C@H]2C(=O)OC(=O)[C@H]2C1`
Response: > 10 µM (inactive)

Prompt: Determine its reported GI50: `N/C(=N\O)N/N=C/c1cc2c(cc1Cl)OCO2`
Response: 59 µM (inactive)

Prompt: Determine its reported GI50: `O=C1/C(=C/c2ccc([N+](=O)[O-])cc2)Sc2scc(-c3cccc([N+](=O)[O-])c3)[n+]21`
Response: 4.1 µM (inactive)
